- measured_on: T1, EGF32 NRR (cyno) (cynomolgus monkey)
- T1 construct: recombinant, C-terminal six histidine tag
- assay_name: ELISA: IgG titrated on directly coated recombinant antigen
reported_metric: pEC50
As a rule, pEC50 stands for the negative log10 of the concentration, concentration in M.

Please report the recorded pEC50 for 12981 (antibody, human IgG1, kappa, V domains shown, also called MOR 12981) VH: QVQLVQSGAEVKKPGSSVKVSCKASGGTFRTYAMHWVRQAPGQGLEWMGGIIPIFGIANYAQKFQGRVTITADESTSTAYMELSSLRSEDTAVYYCARDDYSTYAFAYWGQGTLVTVSS VL: DIQMTQSPSSLSASVGDRVTITCRASQSIASYLAWYQQKPGKAPKLLIYDASNLQSGVPSRFSGSGSGTDFTLTISSLQPEDFATYYCQQAYKTPYTFGQGTKVEIKR .
9.40

Please report the recorded pEC50 for 12225 (antibody, human IgG1, kappa, V domains shown, also called MOR 12225) VH: QVQLVQSGAEVKKPGSSVKVSCKASGGTFSSYTISWVRQAPGQGLEWMGWIKPAFGTANYAQKFQGRVTITADESTSTAYMELSSLRSEDTAVYYCARGSFWFGYWGQGTLVTVSS VL: DIQMTQSPSSLSASVGDRVTITCRASQGINNYLNWYQQKPGKAPKLLIYDASKLQSGVPSRFSGSGSGTDFTLTISSLQPEDFATYYCQQYLQYPMTFGQGTKVEIKR .
9.05

Please report the recorded pEC50 for 20350 (antibody, human IgG1, kappa, V domains shown) VH: QVQLVQSGAEVKKPGSSVKVSCKASGGTFSSYTISWVRQAPGQGLEWMGWIKPRWGAAHYAQKFQGRVTITADESTSTAYMELSSLRSEDTAVYYCARGSFWFGYWGQGTLVTVSS VL: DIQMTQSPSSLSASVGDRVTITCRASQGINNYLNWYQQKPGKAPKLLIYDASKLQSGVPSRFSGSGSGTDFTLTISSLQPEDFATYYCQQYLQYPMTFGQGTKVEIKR .
8.85

Please report the recorded pEC50 for 20351 (antibody, human IgG1, kappa, V domains shown) VH: QVQLVQSGAEVKKPGSSVKVSCKASGGTFSSYTISWVRQAPGQGLEWMGWIKPRYGAAMYAQKFQGRVTITADESTSTAYMELSSLRSEDTAVYYCARGSFWFGYWGQGTLVTVSS VL: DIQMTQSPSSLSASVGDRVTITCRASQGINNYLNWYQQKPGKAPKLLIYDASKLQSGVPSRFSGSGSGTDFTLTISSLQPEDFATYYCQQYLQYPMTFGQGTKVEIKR .
9.10

Please report the recorded pEC50 for 20358 (antibody, human IgG1, kappa, V domains shown) VH: QVQLVQSGAEVKKPGSSVKVSCKASGGTFRTYAMHWVRQAPGQGLEWMGGIVPYHGITDYAQKFQGRVTITADESTSTAYMELSSLRSEDTAVYYCARDDYSTYAFAYWGQGTLVTVSS VL: DIQMTQSPSSLSASVGDRVTITCRASQSIASYLAWYQQKPGKAPKLLIYDASNLQSGVPSRFSGSGSGTDFTLTISSLQPEDFATYYCQQAYKTPYTFGQGTKVEIKR .
9.30
